Tested on: NOMO1
Test: cell viability relative to DMSO control; higher = less cytotoxic
Details: HPLM + 10% dialyzed FBS; 48 h; 0.569 µM
metric: cell viability (%)
Reply with just the number (in %).

Consider the reported cell viability for these compounds:
compound: NC(=O)C1CCCc2c1[nH]c1ccc(Cl)cc21 (centres undefined)
system-under-test: NOMO1
cell viability (%): 105
//
compound: C[C@]12CC[C@H]3[C@@H](C\C=C/4C[C@@H](O)CC[C@]34C)[C@@H]1CCC2=O
system-under-test: NOMO1
cell viability (%): 111
//
compound: Nc1nnc(-c2cccc(Cl)c2Cl)c(N)n1
system-under-test: NOMO1
cell viability (%): 112
//
compound: CCC(=C/[C@H](C)C/C=C/C(C)=C/[C@@H](C)C(=O)[C@@H](C)[C@H](O)[C@@H](C)C/C(C)=C/C(=O)O)/C=C/[C@@H]1OC(=O)C=C[C@@H]1C
system-under-test: NOMO1
cell viability (%): 125
//
compound: COc1ccc(C2Sc3ccccc3N(CCN(C)C)C(=O)C2OC(C)=O)cc1 (centres undefined)
system-under-test: NOMO1
cell viability (%): 113
//
compound: ClC1=CC\2=C(OC3=C(C=CC=C3)\N=C2N4CCNCC4)C=C1
system-under-test: NOMO1
cell viability (%): 118
//
compound: Cc1[nH]c(/C=C2\C(=O)Nc3ccccc32)c(C)c1CCC(=O)O
system-under-test: NOMO1
cell viability (%): 99.9
//
compound: CN(C)CC[C@H](c1ccc(Cl)cc1)c1ccccn1
system-under-test: NOMO1
cell viability (%): 88.3

Fill blank: measured cell viability of the compound CN1c2ccccc2C(=O)N2CCc3c([nH]c4ccccc34)C21 (centres undefined) is ____.
151

====

cell viability by entry:
Test system: P12-Ichikawa
Assay: cell viability relative to DMSO control; higher = less cytotoxic
Settings: HPLM + 10% dialyzed FBS; 48 h; 0.19 µM
Reply with just the number (in %).

Consider the reported cell viability for these molecules:
molecule: C/C(O)=C(\C#N)C(=O)Nc1cc(Br)ccc1Br
cell viability / %: 109

molecule: COCCOc1nc(-c2ccc(Cl)c(Cl)c2)n(-c2ccc(NC(=O)CCl)cc2)n1
cell viability / %: 106

molecule: O=C(Nc1ncc(-c2cc(C(F)F)nn2-c2c(Cl)cccc2Cl)s1)C1CC1
cell viability / %: 129

Fill blank: measured cell viability of the molecule COc1cc2nc(N3CCN(C(=O)C4CCCO4)CC3)nc(N)c2cc1OC (stereo not drawn) is ____.
130

Fill blank: measured cell viability of the molecule NC(=O)C1CCCc2c1[nH]c1ccc(Cl)cc21 (stereo not drawn) is ____.
110

Fill blank: measured cell viability of the molecule `CN1\N=C(N)/C2=C[N]([C@@H]3O[C@H](CO[P](O)(O)=O)[C@@H](O)[C@H]3O)C4=C2C1=NC=N4` is ____.
96.1

Fill blank: measured cell viability of the molecule `CC1(N2CCC(n3c([C@@H]4CCCNC4)nc4ccccc43)CC2)CCCCCCC1` is ____.
115

Fill blank: measured cell viability of the molecule `C[C@@H](NC(=O)c1ncnc(N)c1Cl)c1ncc(C(=O)Nc2cc(C(F)(F)F)c(Cl)cn2)s1` is ____.
122

Fill blank: measured cell viability of the molecule `C=CCc1cccc(/C=N/NC(=O)CN2CCN(Cc3ccccc3)CC2)c1O` is ____.
117

Fill blank: measured cell viability of the molecule `CCC\C1=C\C(=O)NC(=S)N1` is ____.
120

Fill blank: measured cell viability of the molecule `CNC[C@H](O)c1cccc(O)c1` is ____.
102

Fill blank: measured cell viability of the molecule `Oc1cccc(-c2nc(N3CCOCC3)c3oc4ncccc4c3n2)c1` is ____.
121

Fill blank: measured cell viability of the molecule `O=C1Nc2ccc(I)cc2/C1=C/c1cc(Br)c(O)c(Br)c1` is ____.
105
